# Assay Name: Inhibition of mitochondrial Monoamine oxidase-B purified from bovine liver
pIC50: −log10 of the molar value.
Parameter Measured: pIC50

// solved cases for pIC50 follow
NCCNC(=O)c1cccc(Cl)c1    6.92
NCCNC(=O)c1ccccc1I    4.21
NCCNC(=O)c1cccc(Br)c1    7.28
NCCNC(=O)c1ccc(Cl)cc1    7.35
NCCNC(=O)c1ccc(I)cc1    6.77
NCCNC(=O)c1ccc(Cl)cn1 [LAZABEMIDE]    7.52

P. NCCNC(=O)c1ccccc1[N+](=O)[O-]
Q. NCCNC(=O)c1ccccc1Cl
Exercise: Which value of pIC50 is numerically greater: that of P or that of Q ? Respond using the label that marks the chosen record.
Solution: Q
